Test: label from the status in PepcDB records
Quantity name: protein production

MSFKEEQVIKHHQDLANKSVSTFLLLGLDNSGKRKLSTSRTDGMMVVIVNHKTKTITLCSLLRDTFTKIYSQQYHGYQRIETAYTYGGDAAAVATVEHFLKLPIDYYVTLNWDGFIQAINDIGPLSVRVDRAFVGQNYWGHAVHFKAGLQEMNGARALAYARERHVDNDQYRGFRQQAVLYALLKRLNQGALVAKGSQIMGDVKGQVRTNMSEGDMLSLIKYRTVLKHYRVKRVTFQWRTFDTAGRSMVEVYPDSRQHTIAELQAAAGRRAPLEHHHHHH; failed
MAHFSARLKLLSSNDGLSFGVDSRDQFRQSLYMAGGGSPLVPIRMSRLKFCARIFSSYSFPYKRKKIRDLDNTEKNLDIDEDNDEWDFDGDDDGLETDDHLSCFRGLVLDISYRPVNVVCWKRAICLEYMDKADVLEYYDQTVSSPTGSFYIPAVLRVPHLLQVVKRRRVKNSLSRKNILLRDDYTCQYCSSRENLTIDHVMPVSRGGEWTWQNLVAACSRCNSRKGQKTADEAHMKLLKVPKEPKDYDIVAIPLTNAAIRMLRSNKGMPEEWRQYLAKPLSET; failed

###

Assay: label from the status in PepcDB records
Quantity name: protein production

MCGSERFQFRSGAKPLIRGRPLDSDMESLHPRVRLLWVLSTVIQASVLGVIAYLVDRFAVSLPQTVVVGGWVVLVLLGVAHAIAAHRIWRFDLQDDALFLLRGVVTRTDTSVPYVRVQHVDTTRGPVERAIGLASVVVYTAGTRGADITIPGLRPERATELREQLRDLANESEATDAV; failed
MASVSVSHLILFIASMAIAASVAGVFTSSIGELSNAVSEQGLDVSSDVRTDVEIISDSGSDTIYDSGANTITVHVKNTGSETLAPVPGQVDVFVDGTFASDYTVTLEPNGGNSWRPGEVVRIDINDNLSGGDHRLKLIVNGDEEVFEFNT; failed
MGHHHHHHSHGFNKFGGPRDQGSRHDSEQDNSDNNTIFVQGLGENVTIESVADYFKQIGIIKTNKKTGQPMINLYTDRETGKLKGEATVSFDDPPSAKAAIDWFDGKEFSGNPIKVSFAT; failed

###

Assay: label from the status in PepcDB records
Quantity name: protein production

QLSMLNPQKPMRRSEQHIARQVFSGLTRLDEEEQLQPDLAHAWQALSDTHWRFYLRPGVRFHNGNLLTTELIVQNLWQLRLLNLFAHIDRVDSPYPWAVDVHLQKPDTRLPLLLAEACAKILPAESDRNPDFDLMPVGTGPYKVVLND; failed
MTSSRVNSLIVGGFVLILLGGIIAAATILAGKTGSTDTYFTSYDNVTGIKYGTQVLYEGYRIGQVDEIIPEQRAEGTSFRLRLAVQKGWRIPEGSQTTIATSGLLSAVAINIRGGTAEASLTPGSEIPGGASGGMFAAINDLASEVGTLSRDGLEPLVAKLNAYVDTLGGSLADNLPAILGNARITSEAIARDLPPIIARVDRFTARLDAEVLSQKNIDGLGASIGNISAFSAELNGLGRELRQTGQTLDGMVAGSAPLVDSSLRDLRYTLRALASSIDAITFNMEGASRDMKEFSRSLRQNPGVLLRGSAPAEDGR; failed
MIDRPLEGKVAFITGAARGLGRAHAVRLAADGANIIAVDICEQIASVPYPLSTADDLAATVELVEDAGGGIVARQGDVRDRASLSVALQAGLDEFGRLDIVVANAGIAMMQAGDDGWRDVIDVNLTGVFHTVQVAIPTLIEQGTGGSIVLISSAAGLVGIGSSDPGSLGYAAAKHGVVGLMRAYANHLAPQNIRVNSVHPCGVDTPMINNEFFQQWLTTADMDAPHNLGNALPVELVQPTDIANAVAWLASEEARYVTGVTLPVDAGFVNKR; not failed
MDDISVSKSNHGNVVVLNIKASSLADTSLPSNKHESSSPPLLSVHFLQKLLAELVGTYYLIFAGCAAIAVNAQHNHVVTLVGIAVVWGIVIMVLVYCLGHLSAHFNPAVTLALASSQRFPLNQVPAYITVQVIGSTLASATLRLLFDLNNDVCSKKHDVFLGSSPSGSDLQAFVMEFIITGFLMLVVCAVTTTKRTTEELEGLIIGATVTLNVIFAGEVSGASMNPARSIGPALVWGCYKGIWIYLLAPTLGAVSGALIHKMLPSIQNAEPEFSKTGSSHKRVTDLPL; failed
MADQSFAVLGLGKFGMALTVALLKAEQDVLVIDSNEEVINDVAHLVTHAVIADATDEDELRDLDIGSFDHVFVTMGENVEGSIITTMLAKKLGAPDVTTRANNHNHRLVLEKIGADHVIEPEQDMARQLIFRQLHPNVVNYFNLSKNISLIEVSVENSRFFNQSLGDLDFRKNYDVSVIGIVHDGKLNQVPLATDVIAPHDQITLIGSNKAVQRLDDILREEK; failed

Incoming: Look at this sequence and give its reported protein production. MPEVIFNGPAGRLEGRYQPSKEKSAPIAIILHPHPQFGGTMNNQIVYQLFYLFQKRGFTTLRFNFRSIGRSQGEFDHGAGELSDAASALDWVQSLHPDSKSCWVAGYSFGAWIGMQLLMRRPEIEGFMSIAPQPNTYDFSFLAPCPSSGLIINGDADKVAPEKDVNGLVEKLKTQKGILITHRTLPGANHFFNGKVDELMGECEDYLDRRLNGELVPEPAAKRIR
Outgoing: not failed

Incoming: Input MAFAYPKLSEPDTKGEYADGKYKTEGTATEDYTERFQEEIQKVADDNFPGKKNVHLPWKETKEGDIAFIFKNPKKKPILTDSRGKPLKEGTVIRGGSKIRIAGVIAAWEKGAKRGVSLWPDAVRVIKLSEGLEHHHHHH
Outgoing: failed
